Test system: RARa:RXR (NR concentration 270 nM, RXRa partner concentration 90 nM)
PROTOCOL TEXT: PBM binding z-score (relative to random genomic background probes); higher = stronger binding; sequences stand for … in GC…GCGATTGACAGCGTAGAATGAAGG
PBM binding z-score of 0.9 or higher: y. Under 0.9: n.

Asked: Answer whether PBM binding z-score of "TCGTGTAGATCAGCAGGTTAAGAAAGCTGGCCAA" is greater than or equal to 0.9.
Given back: n

Asked: Answer whether PBM binding z-score of "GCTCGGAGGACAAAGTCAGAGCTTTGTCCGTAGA" is greater than or equal to 0.9.
Given back: n

FYI, the data here is from the supplement of paper PMC6555819.
